Each record here notes measured self-aminoacylation.
Test system: biotinyl-Phe-oxazolone
Experiment: self-aminoacylation, catalytic enhancement (BFO) (fold over background); higher = more active; k-Seq, kA / k0A0; sequences stand for … in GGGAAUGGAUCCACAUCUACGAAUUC…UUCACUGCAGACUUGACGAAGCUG
Fewer inactive variants are shown than the library holds.

entry sequence	self-aminoacylation
CUUACCCGGGUCAUCGAGUGA [Fam2.1 aminoacylation ribozyme variant]	36.5
AAGUUUGCUAAAAAUCGCAAG [Fam3.1 aminoacylation ribozyme variant]	0.949
GUACUUCAAACAAUCGGCCUG [Fam1A.1 aminoacylation ribozyme variant]	272
AUUACCCUGGUGAUGGAGUGA [Fam2.1 aminoacylation ribozyme variant]	31.1
CACUUUGCUAAUAGUCGCAAG [Fam3.1 aminoacylation ribozyme variant]	0.947
AAUUUUGCUAAUUGUCGCAAG [Fam3.1 aminoacylation ribozyme variant]	2.61
CCACACGUGAAGCAAUCGGUC [Fam1B.1 aminoacylation ribozyme variant]	0.826
CCACACUUCAAGGAAUCUGUC [Fam1B.1 aminoacylation ribozyme variant]	0.473
AUUACCCUAGUCAGCGAGUGA [Fam2.1 aminoacylation ribozyme variant]	23.4
AAGUGUCCUAAUAGUCGCAAG [Fam3.1 aminoacylation ribozyme variant]	0.985
AUUCACCUAGUUCAUCGUGUG [Fam2.2 aminoacylation ribozyme variant]	4.05
CCCCAAUUCAAGCAAUCGGUC [Fam1B.1 aminoacylation ribozyme variant]	7.89
AAGUUUGCUACUAGUCGCCAG [Fam3.1 aminoacylation ribozyme variant]	0.986
AAGUUGGCUAAUAGCCGCAAG [Fam3.1 aminoacylation ribozyme variant]	2.16
CUUACCCUGGUCACCGAGUGA [Fam2.1 aminoacylation ribozyme variant]	57.1
AUUACCCUUGUUAUCGAGUGA [Fam2.1 aminoacylation ribozyme variant]	116
CUUACCCUCGUCAUCGAGUGA [Fam2.1 aminoacylation ribozyme variant]	3.66
AUUCACCUGGGUCGUCGGGUG [Fam2.2 aminoacylation ribozyme variant]	6.66

* * *

Test system: biotinyl-Trp-oxazolone
Experiment: self-aminoacylation, catalytic enhancement (BWO) (fold over background); higher = more active; k-Seq, kA / k0A0; sequences stand for … in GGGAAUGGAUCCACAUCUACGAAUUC…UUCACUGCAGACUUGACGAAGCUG
Fewer inactive variants are shown than the library holds.
Output Criterion met for self-aminoacylation not less than 1; output Criterion not met otherwise.

entry sequence	system name	category
AUGACCCUGGUCAGCGAGUGA [Fam2.1 aminoacylation ribozyme variant]	biotinyl-Trp-oxazolone	Criterion met
GUUCACCUAGGUCAUCGGUUG [Fam2.2 aminoacylation ribozyme variant]	biotinyl-Trp-oxazolone	Criterion met
AUUCACCUAGGUCAUGGGGUA [Fam2.2 aminoacylation ribozyme variant]	biotinyl-Trp-oxazolone	Criterion met
CCACACUUGAAGCCAUCGGUC [Fam1B.1 aminoacylation ribozyme variant]	biotinyl-Trp-oxazolone	Criterion met
CCAUACUUCAAGCAAUUGGUC [Fam1B.1 aminoacylation ribozyme variant]	biotinyl-Trp-oxazolone	Criterion not met
CUACUUUAAACAAUCGGUUUG [Fam1A.1 aminoacylation ribozyme variant]	biotinyl-Trp-oxazolone	Criterion not met
AUUCUCUUAGGUCAUCGGGUG [Fam2.2 aminoacylation ribozyme variant]	biotinyl-Trp-oxazolone	Criterion met
GUACUUCAAACAAUCGGCCUG [Fam1A.1 aminoacylation ribozyme variant]	biotinyl-Trp-oxazolone	Criterion met
CUACUUGAAACAAUCGGACUG [Fam1A.1 aminoacylation ribozyme variant]	biotinyl-Trp-oxazolone	Criterion not met
GCACACUUCAAGCAGUCGGUC [Fam1B.1 aminoacylation ribozyme variant]	biotinyl-Trp-oxazolone	Criterion met
GUUCACCUAGGUCUUCGGGUG [Fam2.2 aminoacylation ribozyme variant]	biotinyl-Trp-oxazolone	Criterion met
GCACUCUUCAAGCAAUCGGUC [Fam1B.1 aminoacylation ribozyme variant]	biotinyl-Trp-oxazolone	Criterion met
AUUCACCUAGGAAAUCGGGUG [Fam2.2 aminoacylation ribozyme variant]	biotinyl-Trp-oxazolone	Criterion met
ACGUUUACUAAUAGUCGCAAG [Fam3.1 aminoacylation ribozyme variant]	biotinyl-Trp-oxazolone	Criterion met
GUUCCCCUGGUCAUCGAGUGA [Fam2.1 aminoacylation ribozyme variant]	biotinyl-Trp-oxazolone	Criterion met
CUACAUCAAACCAUCGGUCUG [Fam1A.1 aminoacylation ribozyme variant]	biotinyl-Trp-oxazolone	Criterion not met
AAGUUUGCUAAAAGUCGCAAU [Fam3.1 aminoacylation ribozyme variant]	biotinyl-Trp-oxazolone	Criterion met
GUACUUCAAACAAUCUGUCUG [Fam1A.1 aminoacylation ribozyme variant]	biotinyl-Trp-oxazolone	Criterion met

* * *

Test system: biotinyl-Met-oxazolone
Assay: self-aminoacylation, catalytic enhancement (BMO) (fold over background); higher = more active; k-Seq, kA / k0A0; sequences stand for … in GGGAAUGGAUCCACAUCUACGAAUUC…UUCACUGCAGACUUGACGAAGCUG
This sample holds only a part of the variants without activity.

entry sequence	self-aminoacylation
CUACAUCAAACCAUCGGUCUG [Fam1A.1 aminoacylation ribozyme variant]	0.791
AAGUUUGCUAAUAGUCACAAU [Fam3.1 aminoacylation ribozyme variant]	1.18
AAGUUUCCUAAUAGUCCCAAG [Fam3.1 aminoacylation ribozyme variant]	1.5
AUGUUUGCUAAAAGUCGCAAG [Fam3.1 aminoacylation ribozyme variant]	1.69
CCGCACUUCACGCAAUCGGUC [Fam1B.1 aminoacylation ribozyme variant]	1.54
AUUCACCUACGUCAUCGGGUC [Fam2.2 aminoacylation ribozyme variant]	1.25
AUGACCCUGCUCAUCGAGUGA [Fam2.1 aminoacylation ribozyme variant]	1.83
AGUGCCCUGGUCAUCGAGUGA [Fam2.1 aminoacylation ribozyme variant]	12.5
AUUACGCUGGUCAUCCAGUGA [Fam2.1 aminoacylation ribozyme variant]	3.63

* * *

self-aminoacylation values for the sequences below.
Tested on: biotinyl-Ile-oxazolone
Experiment: self-aminoacylation, catalytic enhancement (BIO) (fold over background); higher = more active; k-Seq, kA / k0A0; sequences stand for … in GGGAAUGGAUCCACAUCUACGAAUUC…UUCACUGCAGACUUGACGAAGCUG
This sample holds only a part of the variants without activity.

entry sequence	self-aminoacylation
AUUGUCCUAGGUCAUCGGGUG [Fam2.2 aminoacylation ribozyme variant]	14.2
AUUCACCCCGGUCAUCGGGUG [Fam2.2 aminoacylation ribozyme variant]	4.14
AUAACCCUAGUCAUCGAGUGA [Fam2.1 aminoacylation ribozyme variant]	2.68
CUACUUCUAACAAUCGCUCUG [Fam1A.1 aminoacylation ribozyme variant]	0.612
CCACACUUCGAGCAAUUGGUC [Fam1B.1 aminoacylation ribozyme variant]	0.79
AAGUUUGCUAAUAGUCUAAAG [Fam3.1 aminoacylation ribozyme variant]	1.28
CUUUACCUAGGUCAUCGGGUG [Fam2.2 aminoacylation ribozyme variant]	3.85
CUACUUCAGACAAUCGGUCCG [Fam1A.1 aminoacylation ribozyme variant]	0.811
AUUACCCUGGUUAGCGAGUGA [Fam2.1 aminoacylation ribozyme variant]	2.2
AUUACCAUGGUCAUCGGGUGA [Fam2.1 aminoacylation ribozyme variant]	6.52
AAGUUUGCUUAUAGUCGCAAG [Fam3.1 aminoacylation ribozyme variant]	0.849
CCACUUCAAACAAUGGGUCUG [Fam1A.1 aminoacylation ribozyme variant]	1.07
AUUCACCUAGGUCAUCAGCUG [Fam2.2 aminoacylation ribozyme variant]	0.757
CUACUUCAAACAAUGGGUCUA [Fam1A.1 aminoacylation ribozyme variant]	0.847
AUUACCCCUGUCAUCGAGUGA [Fam2.1 aminoacylation ribozyme variant]	3.62
AAGUUUGCUUAUAGUAGCAAG [Fam3.1 aminoacylation ribozyme variant]	1.04
AUUCACCUAGGUAAUCGGGUA [Fam2.2 aminoacylation ribozyme variant]	1.39
GCAAACUUCAAGCAAUCGGUC [Fam1B.1 aminoacylation ribozyme variant]	2.13

* * *

System: biotinyl-Ile-oxazolone
Experiment: self-aminoacylation, catalytic enhancement (BIO) (fold over background); higher = more active; k-Seq, kA / k0A0; sequences stand for … in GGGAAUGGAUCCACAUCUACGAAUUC…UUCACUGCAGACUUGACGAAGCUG
Fewer inactive variants are shown than the library holds.
Rule: self-aminoacylation of 2 or more gives met; anything lower gives not met.

entry sequence	category
AUUUCCCUGGUCAUCGAUUGA [Fam2.1 aminoacylation ribozyme variant]	not met
AAUUUUGCUAAUAGUCGUAAG [Fam3.1 aminoacylation ribozyme variant]	not met
UUUACCCUGGUCUUCGAGUGA [Fam2.1 aminoacylation ribozyme variant]	met
AUCCACAUAGGUCAUCGGGUG [Fam2.2 aminoacylation ribozyme variant]	met
AUUCACCUGGGUCCUCGGGUG [Fam2.2 aminoacylation ribozyme variant]	met
AUUCACCUAGGUCAUCGAGGG [Fam2.2 aminoacylation ribozyme variant]	not met
AUUCACGUAGGUCAUGGGGUG [Fam2.2 aminoacylation ribozyme variant]	met
AAGUAUGCUAAUAGUCCCAAG [Fam3.1 aminoacylation ribozyme variant]	not met
AUUACCCAGGUCAUCGCGUGA [Fam2.1 aminoacylation ribozyme variant]	met
AAGUUUUAUAAUAGUCGCAAG [Fam3.1 aminoacylation ribozyme variant]	not met
CUACUUCAAACAAUCGGUGUC [Fam1A.1 aminoacylation ribozyme variant]	not met
ACUCACCGAGGUCAUCGGGUG [Fam2.2 aminoacylation ribozyme variant]	met
CUACUCCAAACAAUCGGCCUG [Fam1A.1 aminoacylation ribozyme variant]	not met
AUUACGCUGGACAUCGAGUGA [Fam2.1 aminoacylation ribozyme variant]	met
AUUACGCUGGUCAUCGAGUGC [Fam2.1 aminoacylation ribozyme variant]	not met
AAUAUUGCUAAUAGUCGCAAG [Fam3.1 aminoacylation ribozyme variant]	not met
CCACACUACAAGCAAUCGUUC [Fam1B.1 aminoacylation ribozyme variant]	not met

Ref: the supplement of paper PMC9233669
